- Tested on: zebrafish embryos
- Test method notes: Chamber-specific heart rate (atrium, ventricle) after 2 h exposure, video recording
- Format: in vivo, Danio rerio
- Run parameters: Danio rerio, 4 dpf, atrial bradycardia, read-out: EC50 (CI95) ATRIUM heart rate
Let's look at some compounds and their measured pEC50.
Note on units: pEC50 is unitless, being -log10 of a concentration expressed in mol/L.

>>> print(df.to_string())
                                   compound     assayed_system  meas_value
0  CNC(C)Cc1ccc2c(c1)OCO2 (centres unmarked)  zebrafish embryos        3.30
1  CCCC(C(=O)c1ccc2c(c1)OCO2)N1CCCC1 (centres unmarked)  zebrafish embryos        3.96

Then this compound:
// query Please look up its pEC50: CNC(C)C(=O)c1ccc(C)cc1 (centres unmarked)
// result 3.22

* * *

- Tested on: zebrafish embryos
- Test method notes: AV block 2:1 and ventricular fibrillation after 2 h exposure
- Format: in vivo, Danio rerio
Let's look at some compounds and their measured Lowest concentration provoking AV block.
Give the number; µM is assumed, so skip it.

// query Please look up its Lowest concentration provoking AV block: CNC(C)C(=O)c1ccc2c(c1)OCO2 (centres unmarked) [Methylone, methylone]
// result 250

// query Please look up its Lowest concentration provoking AV block: COC(=O)[C@H]1[C@@H](OC(=O)c2ccccc2)C[C@@H]2CC[C@H]1N2C [Cocaine, cocaine]
// result 50

* * *

- Test method notes: Twenty-four-hour acute toxicity test (lethality and abnormalities, 4 to 5 dpf)
- Assay type: in vivo, Danio rerio
- Run parameters: zebrafish (Danio rerio), in vivo, other: immersion in test solution; 24 h exposure, 4 to 5 dpf, TAPS buffer pH 8.6; read-out: LC50 (CI95)
Quantity name: LC50 at 24 h
Give me the value, and tack the unit on after it.

Example entries and their recorded answers appear below.
                                   molecule  meas_value
0  CNC(C)C(=O)c1ccc2c(c1)OCO2 (centres unmarked) [Methylone, methylone]      127 µM
1  CCCC(C(=O)c1ccc2c(c1)OCO2)N1CCCC1 (centres unmarked) [MDPV, 3,4-methylenedioxy-pyrovalerone]      135 µM
2  COC(=O)[C@H]1[C@@H](OC(=O)c2ccccc2)C[C@@H]2CC[C@H]1N2C [Cocaine, cocaine]      173 µM
3  CNC(C)Cc1ccc2c(c1)OCO2 (centres unmarked) [MDMA, 3,4-methylenedioxy-methamphetamine]      180 µM

// query Please look up its LC50 at 24 h: CNC(C)C(=O)c1ccc(C)cc1 (centres unmarked) [Mephedrone, mephedrone]
// result 147 µM

* * *

- Tested on: zebrafish embryos
- Test method notes: Chamber-specific heart rate (atrium, ventricle) after 2 h exposure, video recording
- Type: in vivo, Danio rerio
- Run parameters: significant decrease in ventricular heart rate
Let's look at some compounds and their measured Lowest concentration inducing ventricular bradycardia (LOAEC).

Example entries and their recorded answers appear below.
In [3]: df
Out[3]:
                                   compound  meas_value
0  CNC(C)C(=O)c1ccc2c(c1)OCO2 (centres unmarked)      250 µM
1  CCCC(C(=O)c1ccc2c(c1)OCO2)N1CCCC1 (centres unmarked)       20 µM
2  CNC(C)C(=O)c1ccc(C)cc1 (centres unmarked)      250 µM
3  COC(=O)[C@H]1[C@@H](OC(=O)c2ccccc2)C[C@@H]2CC[C@H]1N2C       50 µM

Then this compound:
// query Please look up its Lowest concentration inducing ventricular bradycardia (LOAEC): CNC(C)Cc1ccc2c(c1)OCO2 (centres unmarked)
// result 250 µM

# credit: paper PMC10531093
